The values you see were collected from ChEMBL document CHEMBL1123832.

assayed_system: Thromboxane-A synthase (Homo sapiens, UniProt P24557)
Sequence (P24557 whole entry): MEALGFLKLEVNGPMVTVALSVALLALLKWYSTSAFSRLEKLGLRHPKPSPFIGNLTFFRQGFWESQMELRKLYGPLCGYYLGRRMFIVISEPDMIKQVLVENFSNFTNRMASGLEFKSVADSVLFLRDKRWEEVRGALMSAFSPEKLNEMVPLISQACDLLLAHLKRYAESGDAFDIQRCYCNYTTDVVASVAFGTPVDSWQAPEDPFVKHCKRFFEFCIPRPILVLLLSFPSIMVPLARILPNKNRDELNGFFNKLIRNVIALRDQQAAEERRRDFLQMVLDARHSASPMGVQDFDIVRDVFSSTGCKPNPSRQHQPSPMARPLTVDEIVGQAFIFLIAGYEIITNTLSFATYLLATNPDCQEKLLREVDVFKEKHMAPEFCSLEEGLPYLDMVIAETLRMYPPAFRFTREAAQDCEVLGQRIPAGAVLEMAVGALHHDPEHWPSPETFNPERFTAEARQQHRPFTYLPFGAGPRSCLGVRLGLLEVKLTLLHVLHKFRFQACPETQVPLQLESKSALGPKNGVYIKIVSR
measurement_notes: Tested for inhibitory activity against intact human platelet TXA2 formation
Assay type: functional
value_kind: IC50 (µM)

{"molecule": "COC(=O)c1ccc(COC(COCc2ccc(OC)cc2)Cn2ccnc2)cc1 (stereo not given)", "assayed_system": "Thromboxane-A synthase (Homo sapiens, UniProt P24557)", "experimental_result": 1.26}
{"molecule": "COc1ccc(COCC(Cn2ccnc2)OCc2ccc(S(C)(=O)=O)cc2)cc1 (stereo not given)", "assayed_system": "Thromboxane-A synthase (Homo sapiens, UniProt P24557)", "experimental_result": 24.9}
{"molecule": "COc1ccc(COCC(Cn2ccnc2)OCc2ccc(C(=S)N(C)C)cc2)cc1 (stereo not given)", "assayed_system": "Thromboxane-A synthase (Homo sapiens, UniProt P24557)", "experimental_result": 12.4}
{"molecule": "CCNC(=O)c1ccc(COC(COCc2ccc(OC)cc2)Cn2ccnc2)cc1 (stereo not given)", "assayed_system": "Thromboxane-A synthase (Homo sapiens, UniProt P24557)", "experimental_result": 12.4}
{"molecule": "CCCCOC(=O)c1ccc(COC(COCc2ccc(OC)cc2)Cn2ccnc2)cc1 (stereo not given)", "assayed_system": "Thromboxane-A synthase (Homo sapiens, UniProt P24557)", "experimental_result": 0.2}
{"molecule": "COc1ccc(COCC(Cn2ccnc2)OCc2ccc(C(=O)N(C)C)cc2)cc1 (stereo not given)", "assayed_system": "Thromboxane-A synthase (Homo sapiens, UniProt P24557)", "experimental_result": 1.94}
{"molecule": "CCOC(=O)c1ccc(COCC(Cn2ccnc2)OCc2ccc(OC)cc2)cc1 (stereo not given)", "assayed_system": "Thromboxane-A synthase (Homo sapiens, UniProt P24557)", "experimental_result": 3.6}
{"molecule": "CCCOC(=O)c1ccc(COC(COCc2ccc(OC)cc2)Cn2ccnc2)cc1 (stereo not given)", "assayed_system": "Thromboxane-A synthase (Homo sapiens, UniProt P24557)", "experimental_result": 0.18}
{"molecule": "COc1ccc(COCC(Cn2ccnc2)OCc2ccc(C(=O)O)cc2)cc1 (stereo not given)", "assayed_system": "Thromboxane-A synthase (Homo sapiens, UniProt P24557)", "experimental_result": 6.7}
{"molecule": "CCCCCCCCOC(=O)c1ccc(COC(COCc2ccc(OC)cc2)Cn2ccnc2)cc1 (stereo not given)", "assayed_system": "Thromboxane-A synthase (Homo sapiens, UniProt P24557)", "experimental_result": 21}

* * *

assayed_system: Thromboxane-A synthase (Homo sapiens)
measurement_notes: Compound was tested for inhibitory activity against human platelet microsomal TXA2 synthase

{"compound": "CCCCOC(=O)c1ccc(COC(COCc2ccc(OC)cc2)Cn2ccnc2)cc1 (centres undefined)", "IC50 (µM)": 2}
{"compound": "COc1ccc(COCC(Cn2ccnc2)OCc2ccc(C(=O)OCc3ccccc3)cc2)cc1 (centres undefined)", "IC50 (µM)": 7.1}
{"compound": "CCOC(=O)c1ccc(COC(COCc2ccc(OC)cc2)Cn2ccnc2)cc1 (centres undefined)", "IC50 (µM)": 5.3}
{"compound": "COc1ccc(COCC(Cn2ccnc2)OCc2ccc(C(=O)O)cc2)cc1 (centres undefined)", "IC50 (µM)": 1.1}

* * *

assayed_system: UniProt P24557
measurement_notes: Tested for inhibitory activity against intact human platelet TXA2 formation
Type: functional
Consider the following molecules and their measured IC50 readings.
value_kind: IC50 (µM)

{"molecule": "COc1ccc(COCC(Cn2ccnc2)OCc2ccc(C(=O)OCc3ccccc3)cc2)cc1 (configuration not stated)", "value_kind": "IC50", "u": "µM", "experimental_result": 1.49}
{"molecule": "CCCCN(C)C(=O)c1ccc(COC(COCc2ccc(OC)cc2)Cn2ccnc2)cc1 (configuration not stated)", "value_kind": "IC50", "u": "µM", "experimental_result": 5.4}
{"molecule": "CCOC(=O)c1ccc(COCC(Cn2ccnc2)OCc2ccc(C(=O)OCC)cc2)cc1 (configuration not stated)", "value_kind": "IC50", "u": "µM", "experimental_result": 0.7}
{"molecule": "COc1ccc(COCC(Cn2ccnc2)OCc2ccc3c(c2)COC3=O)cc1 (configuration not stated)", "value_kind": "IC50", "u": "µM", "experimental_result": 6.2}
{"molecule": "CCOC(=O)c1ccc(COC(COCc2ccc(OC)cc2)Cn2ccnc2)cc1 (configuration not stated)", "value_kind": "IC50", "u": "µM", "experimental_result": 0.54}
{"molecule": "COc1ccc(COCC(Cn2ccnc2)OCc2ccc(C(=O)Oc3ccccc3)cc2)cc1 (configuration not stated)", "value_kind": "IC50", "u": "µM", "experimental_result": 0.56}
{"molecule": "COc1ccc(COCC(Cn2ccnc2)OCc2ccc([S+](C)[O-])cc2)cc1 (configuration not stated)", "value_kind": "IC50", "u": "µM", "experimental_result": 8.6}
{"molecule": "COc1ccc(COCC(Cn2ccnc2)OCc2ccc(C(=O)OC(C)C)cc2)cc1 (configuration not stated)", "value_kind": "IC50", "u": "µM", "experimental_result": 1.61}
{"molecule": "COc1ccc(COCC(Cn2ccnc2)OCc2ccc(C(N)=O)cc2)cc1 (configuration not stated)", "value_kind": "IC50", "u": "µM", "experimental_result": 6}
{"molecule": "CCOC(=O)c1cccc(COC(COCc2ccc(OC)cc2)Cn2ccnc2)c1 (configuration not stated)", "value_kind": "IC50", "u": "µM", "experimental_result": 7.2}
{"molecule": "COc1ccc(COCC(Cn2ccnc2)OCc2ccc(SC)cc2)cc1 (configuration not stated)", "value_kind": "IC50", "u": "µM", "experimental_result": 6.4}
{"molecule": "COc1ccc(COCC(Cn2ccnc2)OCc2ccc(OC)cc2)cc1 (configuration not stated)", "value_kind": "IC50", "u": "µM", "experimental_result": 9.9}
